Test system: SK-OV-3 ovarian
procedureDetails: NCI tumour cell line growth inhibition, 48 h
observedProperty: TGI (µM)
Numeric only. Scale: µM

Known TGI results, listed for orientation:
Nc1ncnc2c1nc(N)n2C1OC(CO)C(O)C1O (stereo not given); 3.45
COc1cc2c(cc1OCc1ccccc1)N=C[C@@H]1C[C@@H](F)CN1C2=O; 45.8
O=C1c2cccc3cccc(c23)C(=O)N1CC#Cc1ccc2c3c(cccc13)C(=O)N(CCN1CCNCC1)C2=O; 62.6

Input: Read the entry `COC(=O)c1c2c(c(C)[n+]([O-])c1C)C(=O)C=C(NCc1ccc(Br)cc1)C2=O` and write its reported TGI.
Output: 3.41
